Some compounds, each annotated with its measured IC50.
# Test system: IL-6/pSTAT3
# EXPERIMENT_SUMMARY: IL-6 induced pSTAT3 assay in TF-1 cells
# Type: cell-based
# CONDITION_PARAMETERS: Homo sapiens, read-out: Cellular selectivity (IL-6/pSTAT3)

Recorded IC50, per entry:
[
  {
    "MOLECULAR_STRING": "Cc1cc(Nc2cc(Nc3ncccc3S(C)(=O)=O)ncn2)ncc1NC1(C)COC1",
    "IC50": "> 10 µM"
  },
  {
    "MOLECULAR_STRING": "Cc1nc(Nc2cc(Nc3ncccc3S(C)(=O)=O)ncn2)ccc1NC1(C)COC1",
    "IC50": "4 to 10 µM"
  },
  {
    "MOLECULAR_STRING": "Cc1nc(Nc2cc(Nc3ncccc3S(C)(=O)=O)ncn2)ccc1[C@H](C)N1CC2(COC2)C1",
    "IC50": "< 4 µM"
  }
]

Now, please, on to the next compound.
Output IC50 of "CC1(Nc2ccc(Nc3cc(Nc4ncccc4S(C)(=O)=O)ncn3)nc2)COC1" 4 to 10 µM

###

# ASSAYED_SYSTEM: TYK2-JH2 (Homo sapiens, UniProt P29597)
# Construct: TYK JH2 enzyme mix (ChemPartnec CP20210818A-BV); purchased ChemPartner CP20210818A-BV
# Sequence (P29597 589-875 limits assumed): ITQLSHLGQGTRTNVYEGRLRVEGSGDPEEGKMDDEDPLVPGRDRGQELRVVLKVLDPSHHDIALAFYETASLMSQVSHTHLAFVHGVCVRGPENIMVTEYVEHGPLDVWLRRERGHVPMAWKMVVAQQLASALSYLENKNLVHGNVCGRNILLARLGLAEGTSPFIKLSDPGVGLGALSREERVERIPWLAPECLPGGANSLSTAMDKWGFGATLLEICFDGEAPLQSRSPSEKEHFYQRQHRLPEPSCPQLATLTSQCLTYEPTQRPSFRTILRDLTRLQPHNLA
# EXPERIMENT_SUMMARY: TYK2-JH2 HTRF binding assay (ligand efficiency)
# CONDITION_PARAMETERS: calculated from IC50 of the TYK-JH2 binding assay (Equation 1)
PARAMETER: Ligand Efficiency

[
  {
    "MOLECULE": "CS(=O)(=O)c1ccccc1Nc1cc(Nc2ccc(NC3COC3)cn2)ncn1 [Compound 80]",
    "PARAMETER": "Ligand Efficiency",
    "ASSAY_VALUE": "† (†: <0.37)"
  },
  {
    "MOLECULE": "CC(C)(c1ccc(Nc2cc(Nc3ncccc3S(C)(=O)=O)ncn2)nc1)N1CC2(CCOCC2)C1 [Compound 33]",
    "PARAMETER": "Ligand Efficiency",
    "ASSAY_VALUE": "†† (††: 0.37-0.39)"
  },
  {
    "MOLECULE": "C[C@@H](c1ccc(Nc2cc(Nc3ncc(F)cc3S(C)(=O)=O)ncn2)nc1)N1CC2(COC2)C1 [Compound 2]",
    "PARAMETER": "Ligand Efficiency",
    "ASSAY_VALUE": "††† (†††: >0.39)"
  },
  {
    "MOLECULE": "C[C@H](NC1COC1)c1ccc(Nc2cc(Nc3ccccc3S(C)(=O)=O)ncn2)nc1 [Compound 40]",
    "PARAMETER": "Ligand Efficiency",
    "ASSAY_VALUE": "††† (†††: >0.39)"
  }
]

Output Ligand Efficiency of C[C@@H](c1ccc(Nc2cc(Nc3ncc(Cl)cc3S(C)(=O)=O)ncn2)nc1)N1CC2(COC2)C1 [Compound 14] ††† (†††: >0.39)

Output Ligand Efficiency of CC(NC1CC(F)(F)C1)c1ccc(Nc2cc(Nc3ncccc3S(C)(=O)=O)ncn2)nc1 (centres unmarked) [Compound 35] ††† (†††: >0.39)

Output Ligand Efficiency of CS(=O)(=O)c1cccnc1Nc1cc(Nc2ccc(NC3CC(F)(F)C3)cn2)ncn1 [Compound 37] ††† (†††: >0.39)

Output Ligand Efficiency of CS(=O)(=O)c1ccccc1Nc1cc(Nc2ccc(C3(NC4COC4)CC3)cn2)ncn1 [Compound 41] †† (††: 0.37-0.39)

Output Ligand Efficiency of CC(C)[C@@H](c1ccc(Nc2cc(Nc3ncccc3S(C)(=O)=O)ncn2)nc1)N1CC2(COC2)C1 [Compound 13] †† (††: 0.37-0.39)

Output Ligand Efficiency of Cc1cccc(Nc2cc(Nc3ccncc3C(N)=O)ncn2)n1 [Compound 51] ††† (†††: >0.39)

###

# ASSAYED_SYSTEM: TYK2-JH2 (Homo sapiens)
# Construct: TYK JH2 enzyme mix (ChemPartnec CP20210818A-BV); purchased ChemPartner CP20210818A-BV
# EXPERIMENT_SUMMARY: TYK2-JH2 HTRF binding assay (ligand efficiency)
# CONDITION_PARAMETERS: calculated from IC50 of the TYK-JH2 binding assay (Equation 1)
PARAMETER: Ligand Efficiency

[
  {
    "COMPOUND": "CS(=O)(=O)c1cccnc1Nc1cc(Nc2ccc(C(=O)NC3CC(F)(F)C3)cn2)ncn1",
    "ASSAY_VALUE": "††† (†††: >0.39)"
  },
  {
    "COMPOUND": "Cc1ccnc(Nc2cc(Nc3ccccc3C(N)=O)ncn2)c1",
    "ASSAY_VALUE": "††† (†††: >0.39)"
  },
  {
    "COMPOUND": "Cc1cccc(Nc2cc(Nc3cccnc3C(N)=O)ncn2)n1",
    "ASSAY_VALUE": "††† (†††: >0.39)"
  },
  {
    "COMPOUND": "CC(c1ccc(Nc2cc(Nc3ncc(C4COC4)cc3S(C)(=O)=O)ncn2)nc1)N1CC2(COC2)C1 (centres unmarked)",
    "ASSAY_VALUE": "† (†: <0.37)"
  },
  {
    "COMPOUND": "C[C@H](c1ccc(Nc2cc(Nc3ncccc3S(C)(=O)=O)ncn2)nc1)N1CCC2(CCOCC2)C1",
    "ASSAY_VALUE": "†† (††: 0.37-0.39)"
  }
]

Output Ligand Efficiency of "C[C@H]1CN(C2CC2)CCN1c1ccc(Nc2cc(Nc3ncccc3S(C)(=O)=O)ncn2)nc1" ††† (†††: >0.39)

Output Ligand Efficiency of "COc1ccnc(Nc2cc(Nc3cccc(C)n3)ncn2)c1S(C)(=O)=O" ††† (†††: >0.39)

Output Ligand Efficiency of "CC1(CNc2ccc(Nc3cc(Nc4ncccc4S(C)(=O)=O)ncn3)nc2)COC1" ††† (†††: >0.39)

Output Ligand Efficiency of "CS(=O)(=O)c1ccccc1Nc1cc(NC(=O)C2CC2)ncn1" ††† (†††: >0.39)

Output Ligand Efficiency of "C[C@@H](c1ccc(Nc2cc(Nc3ncccc3S(C)(=O)=O)ncn2)nc1)N(C)C" ††† (†††: >0.39)

Output Ligand Efficiency of CS(=O)(=O)c1ccccc1Nc1cc(Nc2ccc(CNC3CCOC3)cn2)ncn1 (centres unmarked) †† (††: 0.37-0.39)

Output Ligand Efficiency of "C[C@@H](c1ccc(Nc2cc(Nc3ncccc3S(C)(=O)=O)ncn2)nc1)N1CC2(CCOCC2)C1" †† (††: 0.37-0.39)

Output Ligand Efficiency of "CS(=O)(=O)c1ccccc1Nc1cc(Nc2ccc(C(=O)NC3COC3)cn2)ncn1" †† (††: 0.37-0.39)

Output Ligand Efficiency of "COc1cnc(Nc2cc(Nc3ccc([C@H](C)N4CC5(COC5)C4)cn3)ncn2)c(S(C)(=O)=O)c1" †† (††: 0.37-0.39)

###

# ASSAYED_SYSTEM: TYK2-JH2 (Homo sapiens)
# Construct: TYK JH2 enzyme mix (ChemPartnec CP20210818A-BV); purchased ChemPartner CP20210818A-BV
# EXPERIMENT_SUMMARY: TYK2-JH2 HTRF binding assay (ligand efficiency)
# CONDITION_PARAMETERS: calculated from IC50 of the TYK-JH2 binding assay (Equation 1)

[
  {
    "MOLECULAR_STRING": "CC1(Nc2ccc(Nc3cc(Nc4ncccc4S(C)(=O)=O)ncn3)nc2)COC1",
    "Ligand Efficiency": "††† (†††: >0.39)"
  },
  {
    "MOLECULAR_STRING": "Cc1nccc(Nc2cc(Nc3ccccc3C(N)=O)ncn2)n1",
    "Ligand Efficiency": "††† (†††: >0.39)"
  },
  {
    "MOLECULAR_STRING": "C[C@@H](c1ccc(Nc2cc(Nc3ncccc3S(C)(=O)=O)ncn2)nc1)N1C[C@H]2COC[C@H]2C1",
    "Ligand Efficiency": "††† (†††: >0.39)"
  }
]

###

# ASSAYED_SYSTEM: TYK2-JH2 (Homo sapiens, UniProt P29597)
# Construct: TYK JH2 enzyme mix (ChemPartnec CP20210818A-BV); purchased ChemPartner CP20210818A-BV
# EXPERIMENT_SUMMARY: TYK2-JH2 HTRF binding assay (ligand efficiency)
# CONDITION_PARAMETERS: calculated from IC50 of the TYK-JH2 binding assay (Equation 1)
PARAMETER: Ligand Efficiency

Recorded Ligand Efficiency, per entry:
[
  {
    "COMPOUND": "Cc1cccnc1Nc1cc(Nc2ccccc2C(N)=O)ncn1 [Compound 68]",
    "ASSAY_VALUE": "††† (†††: >0.39)"
  },
  {
    "COMPOUND": "Cn1ccc(Nc2cc(Nc3ccccc3S(C)(=O)=O)ncn2)n1 [Compound 66]",
    "ASSAY_VALUE": "††† (†††: >0.39)"
  },
  {
    "COMPOUND": "COc1cc(Nc2cc(Nc3ncccc3S(C)(=O)=O)ncn2)ncc1NC1(C)COC1 [Compound 62]",
    "ASSAY_VALUE": "†† (††: 0.37-0.39)"
  },
  {
    "COMPOUND": "CS(=O)(=O)c1cccnc1Nc1cc(Nc2ccc3c(n2)CC[C@@H]3N2CC3(COC3)C2)ncn1 [Compound 9]",
    "ASSAY_VALUE": "††† (†††: >0.39)"
  },
  {
    "COMPOUND": "CC(c1ccc(Nc2cc(Nc3ncccc3S(C)(=O)=O)ncn2)nc1)N1CC2(CC(F)C2)C1 (stereo in doubt) [Compound 10]",
    "ASSAY_VALUE": "††† (†††: >0.39)"
  }
]

Output Ligand Efficiency of CS(=O)(=O)c1cccnc1Nc1cc(Nc2ccc(N3CCC4(CCO4)CC3)cn2)ncn1 [Compound 24] †† (††: 0.37-0.39)

Output Ligand Efficiency of CC(c1ccc(Nc2cc(Nc3ncccc3S(C)(=O)=O)ncn2)nc1)N1CC(F)C1 (centres unmarked) [Compound 22] ††† (†††: >0.39)

Output Ligand Efficiency of Cc1cccc(Nc2cc(Nc3ncccc3CS(C)(=O)=O)ncn2)n1 [Compound 71] ††† (†††: >0.39)
